ASSAY_NOTES: Displacement of [3H]kainate from KA receptor in rat cortical membrane
Format: cell membranes
ENDPOINT: IC50

Before answering, review these 8 worked examples.
O=C(NCc1ccccc1)Nc1cc2c(cc1Cl)[nH]c(=O)n1nc(C(=O)O)c(C(=O)O)c21
11 µM
O=C(NCCc1ccccc1)Nc1cc2c(cc1Cl)[nH]c(=O)n1nc(C(=O)O)c(C(=O)O)c21
17 µM
CCOC(=O)c1nn2c(=O)[nH]c3cc(Cl)c(NC(=O)c4ccccc4C(=O)O)cc3c2c1C(=O)OCC
0.11 µM
O=C(O)c1nn2c(=O)[nH]c3cc(Cl)c(-n4cccc4)cc3c2c1C(=O)O
4.5 µM
O=C(Nc1cccc(C(=O)O)c1)Nc1cc2c(cc1Cl)[nH]c(=O)n1nc(C(=O)O)c(C(=O)O)c21
3 µM
O=C(O)c1nn2c(=O)[nH]c3cc(Cl)c(-n4cnnc4)cc3c2c1C(=O)O
2.4 µM
CCOC(=O)c1nn2c(=O)[nH]c3cc(Cl)c(-n4cnnc4)cc3c2c1C(=O)OCC
82 µM
CCNC(=O)Nc1cc2c(cc1Cl)[nH]c(=O)n1nc(C(=O)O)c(C(=O)O)c21
9.8 µM

// recorded IC50 for O=C(O)c1ccccc1C(=O)Nc1cc2c(cc1Cl)[nH]c(=O)n1nc(C(=O)O)c(C(=O)O)c21 : 0.52 µM
